- EXPERIMENTAL TARGET: human glucagon receptor (human) (UniProt P47871)
- Sequence (P47871 26-477): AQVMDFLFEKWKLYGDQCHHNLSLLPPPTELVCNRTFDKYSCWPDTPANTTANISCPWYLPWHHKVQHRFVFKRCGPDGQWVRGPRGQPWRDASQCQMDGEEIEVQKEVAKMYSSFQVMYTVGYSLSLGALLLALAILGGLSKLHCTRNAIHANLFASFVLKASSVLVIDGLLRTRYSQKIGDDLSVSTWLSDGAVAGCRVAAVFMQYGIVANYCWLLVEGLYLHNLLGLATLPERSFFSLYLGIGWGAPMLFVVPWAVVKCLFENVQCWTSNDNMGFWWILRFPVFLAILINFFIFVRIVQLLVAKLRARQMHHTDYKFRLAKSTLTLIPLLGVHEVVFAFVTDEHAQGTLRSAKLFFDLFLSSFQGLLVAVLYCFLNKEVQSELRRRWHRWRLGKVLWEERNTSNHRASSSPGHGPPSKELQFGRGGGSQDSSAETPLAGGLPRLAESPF
- EXPERIMENT DESCRIPTION: cell-based or functional assay
REPORTED METRIC: cAMP EC50 (nM)

Solved cases (5 shown):
IP305 (Fc fusion) YSEGTFISDYSIALAAAAVRDFVNWLLAGGGGGGGSGGGGSGGGGSGGGGSATHTCPPC	1100
IP392 (Fc fusion) YSEGTFISDYSIAMDKIHQQDFVNWLLAQKGAANDWKHNITQGGGGSGGGGSGGGGSGGGGSGGGGSGGGGSACPPC	530
IP330 (Fc fusion) YSEGTFTSDYSKLLERQAIDEFIALLLKGGGGGGGSGGGGSGGGGSGGGGSGGGGSGGGGSA	1100
IP336 (Fc fusion) YSEGTFISDYSIAMDKIHQQDFVNWLLAQKGGGGGSGGGGSGGGGSGGGGSGGGGSGGGGSA	200
IP289 (Fc fusion) YSEGTFTSDYSKLLEKEAERLFIEWLLKGPGGGGGSGGGGSGGGGSGGGGSATHTCPPC	240

A = IP398 (Fc fusion) YSEGTFISDYSIAMDKIHQQDFVNWLLAQKGKKNDWKHNITQGGGGSGGGGSGGGGSGGGGSGGGGSGGGGSACPPC
B = IP346 (Fc fusion) YSEGTFTSDYSKLLERQAIDEFIAFLLKGGGGGGGSGGGGSGGGGSGGGGSGGGGSGGGGSA
C = IP314 (Fc fusion) YSEGTFISDYSKLLAAAAVRDFVNWLLAGGGGGGGSGGGGSGGGGSGGGGSATHTCPPC
D = IP301 (Fc fusion) YSEGTFTSDVSSYLEREAIDEFIAWLLKGGAAAGGSGSTASSGSGSATGGGGAATHTCPPC
Rank ascending by cAMP EC50. Answer by listing the labels in the requested order.
B, C, A, D
(B: 180 nM, C: 740 nM, A: 1600 nM, D: 12000 nM)
